Data credit: patent US20250152564A1

Molecular target: FGFR2 (Homo sapiens (Human), UniProt P21802)
Sequence (P21802 481-770): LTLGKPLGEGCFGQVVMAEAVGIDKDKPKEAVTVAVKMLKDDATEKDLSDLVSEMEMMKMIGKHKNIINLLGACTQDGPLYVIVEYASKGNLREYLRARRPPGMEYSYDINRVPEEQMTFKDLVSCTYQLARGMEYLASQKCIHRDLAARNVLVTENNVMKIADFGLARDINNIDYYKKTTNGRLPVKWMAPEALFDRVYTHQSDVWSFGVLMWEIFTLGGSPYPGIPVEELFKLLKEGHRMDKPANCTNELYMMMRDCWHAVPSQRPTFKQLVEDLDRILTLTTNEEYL
Experiment: TR-FRET kinase inhibition assay, FGFR2
Type: biochemical
Conditions: ATP Km concentration (30 μM)
assay_endpoint: IC50 (nM)

>>> df
                                    molecule  assay_endpoint  numeric_result
 0  C=CC(=O)N1CC[C@H](n2nc(C#Cc3ccc4c(c3)ncn4C3CC3)c3c(N)ncc(C(C)=O)c32)C1            IC50               1
 1  C=CC(=O)N1CC[C@H](n2nc(C#Cc3cc4ncn(CC)c4cc3F)c3c(N)ncc(C(C)=O)c32)C1            IC50             0.7
 2  C=CC(=O)N1CC[C@H](n2nc(C#Cc3ccc4c(c3)ncn4C)c3c(N)ncc(C(=O)C4CC4)c32)C1            IC50             0.7
 3  C=CC(=O)N1CC[C@H](n2nc(C#Cc3cc4ncn(C5CC5)c4cc3Cl)c3c(N)ncc(C(C)=O)c32)C1            IC50             2.2
 4  C=CC(=O)N1CC[C@H](n2nc(C#Cc3cc4ncn(CC)c4cc3F)c3c(N)ncc(-c4cscn4)c32)C1            IC50             2.4
 5  C=CC(=O)N1CC[C@H](n2nc(C#Cc3ccn4ccnc4c3)c3c(N)ncc(C(=O)C4CC4)c32)C1            IC50             0.7
 6  C=CC(=O)N1CC[C@H](n2nc(C#Cc3ccc4oc(C5CC5)nc4c3)c3c(N)ncc(C(C)=O)c32)C1            IC50             0.6
 7  C=CC(=O)N1CC[C@H](n2nc(C#Cc3cc4ncn(C)c4cc3F)c3c(N)nccc32)C1 [A, reference compound]            IC50            12.8
 8  C=CC(=O)N1CC[C@H](n2nc(C#Cc3ccc4ccnn4c3)c3c(N)ncc(C(=O)CC)c32)C1            IC50             1.4
 9  C=CC(=O)N1CC[C@H](n2nc(C#Cc3cc4nc(C)n(C5CC5)c4cc3Cl)c3c(N)ncc(C(C)=O)c32)C1            IC50             3.4
10  C=CC(=O)N1CC[C@H](n2nc(C#Cc3ccc4csnc4c3)c3c(N)ncc(C(=O)C4CC4)c32)C1            IC50               1
11  C=CC(=O)N1CC[C@H](n2nc(C#Cc3ccc4c(c3)ncn4C3CC3)c3c(N)ncc(C(=O)C4CC4)c32)C1            IC50             1.6
12  C=CC(=O)N1CC[C@H](n2nc(C#Cc3ccc4c(c3)ncn4CC)c3c(N)ncc(C(=O)C4CC4)c32)C1            IC50             1.2
13  C=CC(=O)N1CC[C@H](n2nc(C#Cc3ccc4cn(C5CC5)nc4c3)c3c(N)ncc(C(C)=O)c32)C1            IC50             0.5
14  C=CC(=O)N1CC[C@H](n2nc(C#Cc3cc4ncn(C5CC5)c4cc3F)c3c(N)ncc(C(C)=O)c32)C1            IC50               1
15  C=CC(=O)N1CC[C@H](n2nc(C#Cc3ccc4ccnn4c3)c3c(N)ncc(C(C)=O)c32)C1            IC50               2
16  C=CC(=O)N1CC[C@H](n2nc(C#Cc3ccc4csnc4c3)c3c(N)ncc(C(=O)CC)c32)C1            IC50             1.6
17  C=CC(=O)N1CC[C@H](n2nc(C#Cc3c(F)cc4c(ncn4C)c3F)c3c(N)ncc(-c4cscn4)c32)C1            IC50             1.5
18  C=CC(=O)N1CC[C@H](n2nc(C#Cc3ccc4c(c3)ncn4CC)c3c(N)ncc(C(C)=O)c32)C1            IC50             1.8
19  C=CC(=O)N1CC[C@H](n2nc(C#Cc3ccn4ccnc4c3)c3c(N)ncc(C(C)=O)c32)C1            IC50             1.8
20  C=CC(=O)N1CC[C@H](n2nc(C#Cc3ccc4c(c3)ncn4C3CC3)c3c(N)ncc(C(=O)CC)c32)C1            IC50             1.7
21  C=CC(=O)N1CC[C@H](n2nc(C#Cc3ccc4c(c3)ncn4C)c3c(N)ncc(C(=O)C(C)C)c32)C1            IC50             2.9
